Tested system: T1, human IL-2Rβ (human, UniProt P14784 27-240, limits assumed)
T1 construct: Recombinant human IL-2Rβ protein, coated on ELISA plates or immobilized on a CM5 chip; also called hu IL-2R; interleukin 2 receptor β-chain
T1 sequence: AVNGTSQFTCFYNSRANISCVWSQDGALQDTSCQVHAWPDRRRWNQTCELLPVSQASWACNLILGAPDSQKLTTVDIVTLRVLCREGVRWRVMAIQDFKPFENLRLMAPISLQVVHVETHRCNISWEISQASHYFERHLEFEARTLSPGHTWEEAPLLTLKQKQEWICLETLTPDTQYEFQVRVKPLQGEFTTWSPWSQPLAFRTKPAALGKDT
Method description: P.E. binding ELISA, human IL-2Rβ coated
For each record, write down the corresponding OD450 nm (P.E. binding ELISA).
Numbers only, in OD450 nm.

INSERT INTO measurements (binder, measured_value) VALUES
  ('FJ1427_P035MP06A06 (VHH, Soluble VHH in periplasmic extract (P.E.); also called Clone nr) VHH: QLQLVESGGGLVQAGGSLRLACALSGDVFVRYTMAWFRQAPGKEREFVASVTDSGRTTDYVASVQGRFTVSRDNNKNTVYLQMNSLKPEDTAVYYCAANTDYFQIRSLDRNTWGQGTQVTVSS', 0.3);

Please supply OD450 nm (P.E. binding ELISA) for each of the following items, keeping them in order.
1. FJ1427_P035MP06B09 (VHH, Soluble VHH in periplasmic extract (P.E.); also called Clone nr; 546) VHH: QVQLVESGGGLVQAGGSLRLSCAVSGDVLVRYTMAWFRQAPGKEREFVASVTDSGRTTEYVDSVKGRFTVSRDNAKNTAYLQMNNLKPEDTAVYYCAANTDYFQIRSLDLNTWGQGTQVTVSS
2. FJ1427_P035MP06D07 (VHH, Soluble VHH in periplasmic extract (P.E.); also called Clone nr; 532) VHH: QVQLVESGGGLVQAGGSLRLSCAASGDVFVRYTMAWFRQAPGKEREFVASVTDSGRTTEYVDSVKGRFTVSRDNAKNTAYLQMNNLKPEDTAIYYCAANTDYFQIRSLDLNTWGQGTQVTVSS
3. FJ1427_P035MP06B04 (VHH, Soluble VHH in periplasmic extract (P.E.); also called Clone nr) VHH: QVQLVESGGGLVQAGGSLRLSCAVSGDVFVRYTMAWFRQAPGKEREFVASVTDSGRTTEYVDSVKGRFTVSRDNAKNTAYLQMNNLKPEDTAVYYCAANTDYFQIRSLDLNTWGQGTQVTVSS

Response:
[0.329, 0.957, 0.935]
